Experiment: Half life in Wistar rat at 1 mg/kg, iv and 5 mg/kg, po
Type: ADME, organism-based
Details: in vivo
reported_metric: half-life (min)
Numbers only, in min.

half-life reading for "CC(C)S(=O)(=O)NC[C@H](C)c1ccc(-n2cc(CO)c(C(F)(F)F)n2)cc1" : 60

====

Molecular target: Glutamate receptor 2 (Homo sapiens)
Assay: Modulatory activity at GluA2 receptor LBD
Cut-off 500 nM on EC50: below means YES, at or above means NO.

A selection of reference data follows.
> print(dat)
                                   compound  classification
1  COc1ccccc1S(=O)(=O)NC1CCc2cc(Cn3cc(CO)c(C(F)(F)F)n3)ccc21 (centres undefined)              NO
2  NC(=O)c1c(NC(=O)Cn2cc(CO)c(C(F)(F)F)n2)sc2c1CCCC2             YES
3  CC(C)S(=O)(=O)N[C@H]1Cc2ccc(Cn3nc(C(F)(F)F)c4c3CCNC4)cc2C1              NO

Query: Is the reported EC50 for "CCn1nc(C(F)(F)F)cc1Cc1ccc2c(c1)C[C@@H](NS(=O)(=O)C(C)C)C2" strictly below 500 nM?
Response: NO

Query: Is the reported EC50 for "CC(C)S(=O)(=O)N[C@H]1Cc2ccc(Cn3cc(CF)c(C(F)(F)F)n3)cc2C1" strictly below 500 nM?
Response: NO

Query: Is the reported EC50 for "CC(C)S(=O)(=O)N[C@H]1Cc2ccc(Cn3nc(C(F)(F)F)cc3C(F)(F)F)cc2C1" strictly below 500 nM?
Response: YES

Query: Is the reported EC50 for Cn1cc(S(=O)(=O)NC2CCc3cc(Cn4cc(CO)c(C(F)(F)F)n4)ccc32)c(C(F)(F)F)n1 (centres undefined) strictly below 500 nM?
Response: NO

====

Assay: Bioavailability in Wistar rat at 1 mg/kg, iv and 5 mg/kg, po
Assay type: ADME, organism-based
Conditions: in vivo
reported_metric: bioavailability (%)
One number for each entry, in %.

bioavailability reading for "CC(C)S(=O)(=O)NC[C@H](C)c1ccc(-n2cc(CO)c(C(F)(F)F)n2)cc1" : 3.2

====

Assay: Intrinsic clearance in human microsomes assessed per mg of protein
Format: ADME, Microsome
reported_metric: clearance

clearance reading for "O=S(=O)(N[C@@H]1Cc2ccc(Cn3cc(CO)c(C(F)(F)F)n3)cc2C1)C(F)(F)F" : < 12 µL/min/mg

====

Assay: Permeability from basolateral to apical side of human Caco2 cells
Format: ADME, cell-based
Settings: Caco-2, read-out: permeability
reported_metric: Papp B→A
Returns: string containing the numeric result and its unit.

> print(dat)
                            smiles.notation  reported.metric    readout.value
1  CC(C)S(=O)(=O)N[C@H]1Cc2ccc(Cn3cc(CO)c(C(F)(F)F)n3)cc2C1         Papp B→A    29 ×10⁻⁶ cm/s
2  CC(C)S(=O)(=O)NC[C@H](C)c1ccc(-n2cc(CO)c(C(F)(F)F)n2)cc1         Papp B→A  28.7 ×10⁻⁶ cm/s

Papp B→A reading for "O=S(=O)(N[C@@H]1Cc2ccc(Cn3cc(CO)c(C(F)(F)F)n3)cc2C1)C(F)(F)F" : 26.4 ×10⁻⁶ cm/s

====

Assign solubility to each entry below.
Assay: Solubility of the compound
Format: physicochemical

> print(dat)
                            smiles.notation  reported.metric  readout.value
1  O=S(=O)(N[C@@H]1Cc2ccc(Cn3cc(CO)c(C(F)(F)F)n3)cc2C1)C(F)(F)F       solubility       84 µg/mL
2  NC(=O)c1c(NC(=O)Cn2cc(CO)c(C(F)(F)F)n2)sc2c1CCCC2       solubility       20 µg/mL

Shifting focus to the compound that follows.
solubility reading for "CC(C)S(=O)(=O)N[C@H]1Cc2ccc(Cn3nc(C(F)(F)F)cc3C(F)(F)F)cc2C1" : < 1 µg/mL

====

Assay: Cmax in Wistar rat cerebrospinal fluid at 2 mg/kg, ip
Type: ADME, organism-based
Design: dose 2 mg/kg, route intraperitoneal
reported_metric: Cmax (nM)
Give bare numbers, in nM.

Cmax reading for "O=S(=O)(N[C@@H]1Cc2ccc(Cn3cc(CO)c(C(F)(F)F)n3)cc2C1)C(F)(F)F" : 120

====

Target: Glutamate receptor 2 (Homo sapiens, UniProt P42262)
Sequence (P42262 whole entry, the tested form may be a part): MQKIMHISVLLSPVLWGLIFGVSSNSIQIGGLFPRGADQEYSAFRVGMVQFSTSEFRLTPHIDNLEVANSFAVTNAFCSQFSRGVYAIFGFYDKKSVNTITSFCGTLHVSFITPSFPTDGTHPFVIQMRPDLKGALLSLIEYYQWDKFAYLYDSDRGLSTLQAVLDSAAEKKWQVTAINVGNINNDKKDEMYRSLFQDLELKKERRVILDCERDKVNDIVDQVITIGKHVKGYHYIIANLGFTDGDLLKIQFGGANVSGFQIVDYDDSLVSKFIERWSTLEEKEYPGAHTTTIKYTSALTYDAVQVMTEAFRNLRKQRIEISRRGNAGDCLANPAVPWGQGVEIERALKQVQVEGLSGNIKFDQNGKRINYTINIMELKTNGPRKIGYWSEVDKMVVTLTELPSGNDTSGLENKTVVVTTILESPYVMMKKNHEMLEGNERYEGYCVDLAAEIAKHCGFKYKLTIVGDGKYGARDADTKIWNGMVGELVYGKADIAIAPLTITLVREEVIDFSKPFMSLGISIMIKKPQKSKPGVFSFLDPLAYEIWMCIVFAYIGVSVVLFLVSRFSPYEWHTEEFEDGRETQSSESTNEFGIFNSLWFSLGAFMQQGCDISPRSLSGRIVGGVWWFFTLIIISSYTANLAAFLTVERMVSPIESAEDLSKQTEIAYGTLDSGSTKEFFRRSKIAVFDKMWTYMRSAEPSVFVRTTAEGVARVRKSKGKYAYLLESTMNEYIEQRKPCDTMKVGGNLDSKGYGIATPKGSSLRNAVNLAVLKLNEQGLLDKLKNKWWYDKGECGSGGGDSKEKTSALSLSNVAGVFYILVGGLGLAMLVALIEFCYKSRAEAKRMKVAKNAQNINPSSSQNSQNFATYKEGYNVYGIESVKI
Experiment: Modulatory activity at GluA2 receptor LBD
Cut-off 5000 nM on EC50: below means Met, at or above means Not met.

A selection of reference data follows.
> print(dat)
                                   compound                     target.or.test.system  classification
1  CC(C)S(=O)(=O)N[C@H]1Cc2ccc(Cc3ccc(C(F)(F)F)o3)cc2C1  Glutamate receptor 2 (Homo sapiens, UniProt P42262)             Met
2  CC(C)S(=O)(=O)N[C@H]1Cc2ccc(Cn3nc(C(F)(F)F)c4c3CCCC4)cc2C1  Glutamate receptor 2 (Homo sapiens, UniProt P42262)             Met
3  CS(=O)(=O)N[C@H]1Cc2ccc(Cn3cc(CO)c(C(F)(F)F)n3)cc2C1  Glutamate receptor 2 (Homo sapiens, UniProt P42262)         Not met
4  CC(C)S(=O)(=O)N[C@H]1Cc2ccc(Cn3cc(CO)c(C(F)(F)F)c3)cc2C1  Glutamate receptor 2 (Homo sapiens, UniProt P42262)             Met
5  CCNCc1cn(CC(=O)Nc2sc3c(c2C(N)=O)CCCC3)nc1C(F)(F)F  Glutamate receptor 2 (Homo sapiens, UniProt P42262)             Met

As a next step, examine the compound that follows.
Query: Is the reported EC50 for CC(C)S(=O)(=O)NC1Cc2ccc(-n3cc(CO)c(C(F)(F)F)n3)cc2C1 (racemic) strictly below 5000 nM?
Response: Not met

====

Assay: Permeability from apical to basolateral side of human Caco2 cells
Type: ADME, cell-based
Details: Caco-2, read-out: permeability
Assign Papp A→B to each entry below.
Give bare numbers, in ×10⁻⁶ cm/s.

Give Papp A→B for all compounds that follow.
1. CC(C)S(=O)(=O)NC[C@H](C)c1ccc(-n2cc(CO)c(C(F)(F)F)n2)cc1
2. O=S(=O)(N[C@@H]1Cc2ccc(Cn3cc(CO)c(C(F)(F)F)n3)cc2C1)C(F)(F)F
3. CC(C)S(=O)(=O)N[C@H]1Cc2ccc(Cn3cc(CO)c(C(F)(F)F)n3)cc2C1

Response:
1. 20.6
2. 16.9
3. 12.8
